Test system: Staphylococcus aureus
CONDITION_SUMMARY: Concentration 32 ug.mL-1;; ASSAY_TEST Inhibition of Bacterial Growth; detection method Absorption (OD600); MEDIA CAMHB; plate type 384well; NBS; CORNING #3640; time 18 hr
Description: Antibacterial activity against Staphylococcus aureus MRSA ATCC 43300 (CO-ADD:GP_020); MIC in CAMBH media, using NBS plates, by OD(600)
Entries with a potency or affinity are not part of this list.
QUANTITY_NAME: Inhibition (%)

INSERT INTO assay_data (molecule, quantity_name, recorded_value) VALUES
  ('COC(=O)c1ccccc1NC(=O)Cn1nc2c3cc(-c4ccc(Cl)cc4)nn3ccn2c1=O', 'Inhibition', 10.87),
  ('C=Cc1ccc(CN(c2ccc3c(c2)OCO3)S(=O)(=O)c2ccc3nncn3c2)cc1', 'Inhibition', 3.79),
  ('COc1cccc(Oc2nccn3c(=O)n(CC(=O)NCc4cccs4)nc23)c1', 'Inhibition', 7.35),
  ('CCc1nnc2ccc(S(=O)(=O)N(Cc3ccccc3)c3ccccc3)cn12', 'Inhibition', 5.6),
  ('COc1ccc(NC(=O)Cn2nc3c(N4CCOCC4)nccn3c2=O)cc1Cl', 'Inhibition', 10.11),
  ('CCOc1ccccc1CNC(=O)CCc1nnc2ccc(-c3ccccc3)nn12', 'Inhibition', 9.42),
  ('CC(C)c1nnc2c(=O)n(CC(=O)Nc3ccc(Cl)cc3)c3ccccc3n12', 'Inhibition', 11.52),
  ('O=S(=O)(c1cccn2cnnc12)N(Cc1cccc(Cl)c1)c1cc(F)cc(F)c1', 'Inhibition', 17.81),
  ('CCOC(=O)N1CCN(C(=O)CCc2nnc3c4cc(-c5ccccc5)nn4ccn23)CC1', 'Inhibition', 4.14),
  ('O=C(Cn1nc2ccc(-c3ccccc3)nn2c1=O)Nc1ccc(F)c(Cl)c1', 'Inhibition', 7.52),
  ('CC(C)c1ccc(NC(=O)Cn2nc3c(SCc4ccccc4)nccn3c2=O)cc1', 'Inhibition', 1.97),
  ('COC(=O)c1ccc(CN(c2ccc(C)cc2)S(=O)(=O)c2ccc3nnc(C)n3c2)o1', 'Inhibition', 4.75),
  ('Cc1ccc(Sc2nccn3c(=O)n(CC(=O)Nc4cccc(Br)c4)nc23)c(C)c1', 'Inhibition', -7.2),
  ('COc1ccccc1CNC(=O)CSc1nnc2c3cc(-c4ccc(C)cc4)nn3ccn12', 'Inhibition', -5.58),
  ('O=C(Cn1nc2c(=O)n(-c3ccc(Br)cc3)ccn2c1=O)Nc1ccc(F)cc1F', 'Inhibition', 3.27),
  ('Cc1cc2nn(CC(=O)Nc3ccc4c(c3)OCCO4)c(=O)n2c(Nc2ccccc2C)n1', 'Inhibition', 9.51),
  ('Cc1cc2nn(CC(=O)Nc3ccc(F)c(F)c3)c(=O)n2c(Nc2ccc(C)c(F)c2)n1', 'Inhibition', 7.73),
  ('Cc1ccccc1CN(c1cccc(F)c1)S(=O)(=O)c1ccc2nncn2c1', 'Inhibition', -9.31),
  ('O=C(Cn1nc2c(Sc3ccccc3)nccn2c1=O)Nc1cc(F)ccc1F', 'Inhibition', 0.01),
  ('CCOc1ccc(-n2ccn3c(SCC(=O)c4c(C)[nH]c5ccccc45)nnc3c2=O)cc1', 'Inhibition', -0.13),
  ('Cc1ccc(Sc2nccn3c(=O)n(CC(=O)N4CCN(c5ccccc5)CC4)nc23)c(C)c1', 'Inhibition', -10.57),
  ('CC(C)CCn1c(=O)c2sccc2n2c(=O)n(CCOc3ccccc3)nc12', 'Inhibition', 0.45),
  ('Cc1ccc(NC(=O)Cn2c(=O)c3nnc(C)n3c3ccccc32)cc1C', 'Inhibition', 17.12),
  ('CCc1ccccc1Sc1nccn2c(=O)n(CC(=O)N3CCN(c4ccccc4)CC3)nc12', 'Inhibition', -10.72),
  ('CC(C)Sc1ccc2nn(CC(=O)Nc3ccc(Br)cc3F)c(=O)n2n1', 'Inhibition', -2.61),
  ('Cc1nnc2ccc(S(=O)(=O)N(Cc3ccccc3)c3ccc(Cl)cc3)cn12', 'Inhibition', 1.7),
  ('O=C(Cn1nc2c3cc(-c4ccccc4)nn3ccn2c1=O)N1CCCc2ccccc21', 'Inhibition', 4.94),
  ('Cc1nnc2c(S(=O)(=O)N(Cc3cccc(F)c3)c3cccc(F)c3)cccn12', 'Inhibition', 18.57),
  ('COc1ccc(NC(=O)C(C)Sc2nnc3c(=O)n(-c4cccc(OC)c4)ccn23)cc1 (stereo not given)', 'Inhibition', 6.45),
  ('COc1ccccc1N1CCN(C(=O)Cn2nc3ccc(-c4ccc(C)c(C)c4)nn3c2=O)CC1', 'Inhibition', 13.88),
  ('Cc1ccc(-c2cc3c4nnc(CCC(=O)NCc5ccc(C(F)(F)F)cc5)n4ccn3n2)cc1C', 'Inhibition', 3.78),
  ('CCCc1ccc(S(=O)(=O)Nc2ccc3nncn3n2)cc1', 'Inhibition', 16.11),
  ('Cc1ccc(S(=O)(=O)Nc2ccc3nnc(-c4ccccc4)n3n2)cc1C', 'Inhibition', 8.79),
  ('CCN(C(=O)CSc1nnc2c3cc(-c4ccc(OC)cc4)nn3ccn12)c1ccccc1', 'Inhibition', 5.44),
  ('CC(C)(C)Sc1ccc2nn(CC(=O)NCc3ccc(Cl)cc3)c(=O)n2n1', 'Inhibition', 1.41),
  ('O=C(Cn1nc2nc(Nc3ccc(F)cc3)ccn2c1=O)N1CCCc2ccccc21', 'Inhibition', 5.55),
  ('COc1ccccc1NC(=O)Cn1nc2c3c4c(sc3ncn2c1=O)CCCC4', 'Inhibition', 0.74),
  ('COc1ccc(-c2cc3c4nnc(CCC(=O)NCc5ccc(OC)c(OC)c5)n4ccn3n2)cc1', 'Inhibition', 6.96),
  ('O=C(Cn1nc2ccc(SCc3ccc(Cl)cc3)nn2c1=O)Nc1ccccc1', 'Inhibition', 5.05),
  ('Cc1nnc2ccc(S(=O)(=O)N(CC(=O)OC(C)(C)C)c3ccc4c(c3)OCO4)cn12', 'Inhibition', 2.93);

* * *

Tested on: Staphylococcus aureus
CONDITION_SUMMARY: Concentration 32 ug.mL-1;; ASSAY_TEST Inhibition of Bacterial Growth; detection method Absorption (OD600); MEDIA CAMHB; plate type 384well; NBS; CORNING #3640; time 18 hr
Entries with a potency or affinity are not part of this list.
QUANTITY_NAME: Inhibition (%)

INSERT INTO assay_data (chem_smiles, tgt, unit_string, recorded_value) VALUES
  ('COc1ccc(-c2nc(CSc3nc4ccccc4n4c(C(C)C)nnc34)c(C)o2)cc1OC', 'Staphylococcus aureus', '%', -10.5),
  ('COc1ccc(C(=O)CSc2nnc3c(=O)n(-c4ccc(F)c(F)c4)ccn23)cc1', 'Staphylococcus aureus', '%', 14.04),
  ('COc1cccc(NC(=O)Cn2nc3c(N4CCCC4)nccn3c2=O)c1', 'Staphylococcus aureus', '%', -2.28),
  ('CCc1cccc(NC(=O)Cn2nc3c(SC4CCCCC4)nccn3c2=O)c1', 'Staphylococcus aureus', '%', -3.76),
  ('COc1cccc(NC(=O)Cn2nc3c4cc(-c5ccc(Cl)cc5)nn4ccn3c2=O)c1', 'Staphylococcus aureus', '%', 4.83);

* * *

Test system: Staphylococcus aureus
CONDITION_SUMMARY: Concentration 32 ug.mL-1;; ASSAY_TEST Inhibition of Bacterial Growth; detection method Absorption (OD600); MEDIA CAMHB; plate type 384well; NBS; CORNING #3640; time 18 hr
Measured potencies and affinities stand elsewhere.
QUANTITY_NAME: Inhibition (%)

INSERT INTO assay_data (compound, tgt, recorded_value) VALUES
  ('CCCNC(=O)Cn1nc2n(Cc3cccs3)c(=O)c3sccc3n2c1=O', 'Staphylococcus aureus', 6.83),
  ('Cc1ccc(NC(=O)Cn2nc3c(N4CCOCC4)nccn3c2=O)cc1Cl', 'Staphylococcus aureus', 10.97),
  ('COc1ccc(NC(=O)Cn2nc3c(SCc4ccc(Cl)cc4)nccn3c2=O)cc1OC', 'Staphylococcus aureus', 6.14),
  ('Cc1ccccc1CSc1nnc2c(=O)n(-c3ccc(F)c(F)c3)ccn12', 'Staphylococcus aureus', 12.28),
  ('Cc1ccc(NC(=O)Cn2nc3ccc(-c4ccccc4)nn3c2=O)cc1', 'Staphylococcus aureus', 2.61),
  ('O=C(Cn1nc2c(SCc3ccccc3)nccn2c1=O)NCc1ccccc1', 'Staphylococcus aureus', -16.25),
  ('CCOc1ccc(-n2ccn3c(SCC(=O)Nc4cc(Cl)ccc4OC)nnc3c2=O)cc1', 'Staphylococcus aureus', 6.02),
  ('CCc1nnc2ccc(S(=O)(=O)N(Cc3cccc(OC)c3)c3cccc(F)c3)cn12', 'Staphylococcus aureus', -0.28),
  ('Cc1ccc(N(CC(=O)OC(C)(C)C)S(=O)(=O)c2cccn3cnnc23)cc1', 'Staphylococcus aureus', 15.19),
  ('COc1cccc(-n2ccn3c(SCC(=O)NC(C)C)nnc3c2=O)c1', 'Staphylococcus aureus', 11),
  ('COc1ccccc1-n1ccn2c(SCc3cc(C)ccc3C)nnc2c1=O', 'Staphylococcus aureus', 12.05),
  ('COc1cccc(Sc2nc3ccccc3n3c(=O)n(CC(=O)Nc4cccc(F)c4)nc23)c1', 'Staphylococcus aureus', 3.13),
  ('CCCCOc1ccc(-c2cc3c4nnc(SCC(=O)Nc5cc(C)ccc5OC)n4ccn3n2)cc1', 'Staphylococcus aureus', -29),
  ('COc1ccc(-c2cc3c4nnc(SCC(=O)Nc5ccc(OC)c(Cl)c5)n4ccn3n2)cc1', 'Staphylococcus aureus', 3.66),
  ('O=C(CSc1nnc2c(=O)n(-c3ccc(Br)cc3)ccn12)Nc1cc(F)ccc1F', 'Staphylococcus aureus', 11.71),
  ('O=C(Cn1nc2ccc(-c3ccccc3)nn2c1=O)Nc1ccc(Cl)c(C(F)(F)F)c1', 'Staphylococcus aureus', 6.21),
  ('CC(C)c1nnc2c(=O)n(CC(=O)Nc3ccc(F)cc3)c3ccccc3n12', 'Staphylococcus aureus', 20.52),
  ('O=C(Cn1nc2ccc(Sc3cccc(F)c3)nn2c1=O)Nc1ccc(Cl)cc1', 'Staphylococcus aureus', 7.1),
  ('CCc1ccc(Cn2c(=O)c3sccc3n3c(SCc4cccc(C(F)(F)F)c4)nnc23)cc1', 'Staphylococcus aureus', 5.26),
  ('Cc1nnc2ccc(S(=O)(=O)N(Cc3ccccc3F)c3cc(F)cc(F)c3)cn12', 'Staphylococcus aureus', -3.63),
  ('COc1ccc(NC(=O)Cn2nc3c(N4CCCC4)nccn3c2=O)cc1Cl', 'Staphylococcus aureus', 12.62),
  ('COc1ccccc1NC(=O)Cn1nc2c(SCc3ccc(Cl)cc3)nccn2c1=O', 'Staphylococcus aureus', 2.82),
  ('CCCn1c(=O)c2sccc2n2c(=O)n(Cc3ccc(Cl)cc3)nc12', 'Staphylococcus aureus', 1.51),
  ('CCOC(=O)c1ccc(NC(=O)Cn2nc3c(SC4CCCCC4)nccn3c2=O)cc1', 'Staphylococcus aureus', 5.44),
  ('Cc1ccc(Cl)cc1NC(=O)CSc1nnc2n(CC3CCCO3)c(=O)c3sccc3n12 (stereo unspecified)', 'Staphylococcus aureus', 8.22),
  ('CCC(Sc1nnc2c(=O)n(-c3ccc(F)cc3)ccn12)C(=O)Nc1cc(OC)cc(OC)c1 (stereo unspecified)', 'Staphylococcus aureus', 15.63),
  ('Cc1ccccc1Oc1nccn2c(=O)n(CC(=O)Nc3ccc(C#N)cc3)nc12', 'Staphylococcus aureus', 8.67),
  ('Cc1cccc(-c2nc(CSc3nc4ccccc4n4c(C)nnc34)c(C)o2)c1', 'Staphylococcus aureus', 9.9),
  ('O=C(Cn1nc2c(SCc3ccc(Cl)cc3)nccn2c1=O)N1CCN(c2ccccc2)CC1', 'Staphylococcus aureus', -0.6),
  ('COc1ccccc1-n1ccn2c(SCC(=O)Nc3ccc(F)cc3F)nnc2c1=O', 'Staphylococcus aureus', -4.28),
  ('COc1ccc(NC(=O)Cn2nc3ccc(SC(C)(C)C)nn3c2=O)cc1Cl', 'Staphylococcus aureus', -0.4),
  ('COc1ccc(N(Cc2ccccc2F)S(=O)(=O)c2ccc3nnc(C)n3c2)cc1', 'Staphylococcus aureus', 8.97),
  ('Cc1cc(Br)ccc1NC(=O)Cn1nc2c(SC3CCCCC3)nccn2c1=O', 'Staphylococcus aureus', 6.25),
  ('Cc1cc(C)cc(N(Cc2ccccc2)S(=O)(=O)c2cccn3c(C)nnc23)c1', 'Staphylococcus aureus', -1.33),
  ('COc1ccccc1-n1ccn2c(SCc3ccccc3C)nnc2c1=O', 'Staphylococcus aureus', 16.46),
  ('COc1ccc(NC(=O)CSc2nnc3c(=O)n(-c4cccc(OC)c4)ccn23)cc1', 'Staphylococcus aureus', 14.04),
  ('COc1ccccc1-n1ccn2c(SCC(=O)Nc3ccc(C)cc3C)nnc2c1=O', 'Staphylococcus aureus', 14.03),
  ('Cc1c(Cl)cccc1-n1ccn2c(=O)n(Cc3cccc(Cl)c3)nc2c1=O', 'Staphylococcus aureus', 7.64),
  ('Cc1cccc(CN(c2ccc(C(C)C)cc2)S(=O)(=O)c2cccn3c(C)nnc23)c1', 'Staphylococcus aureus', 5.76),
  ('O=C(Cn1nc2ccc(-c3ccccc3)nn2c1=O)NC1CCCCC1', 'Staphylococcus aureus', 8.4),
  ('COc1cccc(Sc2nc3ccccc3n3c(=O)n(CC(=O)Nc4ccc(C)cc4)nc23)c1', 'Staphylococcus aureus', 4.18);
